Each entry below carries its recorded EC50.
Biological target: T1, human cell-surface M-CSF on stably transfected CHO cells (human, UniProt P09603 33-554)
T1 construct: also called csM-CSF
T1 sequence: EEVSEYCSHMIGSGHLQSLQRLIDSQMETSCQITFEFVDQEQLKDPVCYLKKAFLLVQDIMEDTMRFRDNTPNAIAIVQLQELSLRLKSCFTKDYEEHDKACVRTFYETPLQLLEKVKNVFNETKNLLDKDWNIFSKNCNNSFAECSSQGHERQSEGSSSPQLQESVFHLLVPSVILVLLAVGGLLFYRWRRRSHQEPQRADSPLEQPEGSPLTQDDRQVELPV
Experiment: FACS, CHO cells stably transfected with M-CSF (n = 3)
property-name: EC50 (nM)

binder	property-name	readout-unit	value
Celine, IgG1_D265A (antibody, V domains shown, tested as IgG1 with D265A in the Fc (EU index)) VH: QVQLQQSGPGLVKPSQTLSLTCAISGDSVSTSSAAWNWIRQSPSRGLEWLGRTYYRSKWKHEYAVSVKSRITINPDTSKNQFSLQLNSVTPEDTAVYYCARDRYYYSAFDYWGQGTLVTVSS VL: QSALTQPASVSGSPGQSITISCTGTSSDVGGYNSVSWYQQHPGKAPKLIIYAVSNRPSGVSNRFSGSKSGNTASLTISGLQAEDEADYYCASYDERFTRVFGGGTKLTVLG	EC50	nM	9.7
Romaine, IgG1_D265A (antibody, V domains shown, tested as IgG1 with D265A in the Fc (EU index); Parental antibody of Satine, Servane) VH: EVQLVESGGGLVKPGGSLRLSCAASGFTFSIYAMSWVRQAPGKGLEWVGRIKSNADGGTTEYAAPVKGRFTISRDDSKNTLYLQMNSLKTEDTAVYYCARMRYYSDLYFDPWGQGTLVTVSS VL: DIELTQPPSVSVSPGQTASITCSGDAIGSKYVHWYQQKPGQAPVLVISKDNKRPSGIPERFSGSNSGNTATLTISGTQAEDEADYYCQTATVSSYWWVFGGGTKLTVLG	EC50	nM	16.4
